- Study Target: HLA-A*03:01
- Protocol Description: IEDB peptide-MHC binding, purified MHC/competitive/fluorescence; filed as Kd, often an IC50 or EC50 that approximates it; bounds were set here for any values at or beyond the usual limits of such assays
- Measurement Parameters: source organism: Influenza A virus (A/swine/Italy/1509-6/97(H1N1))
Quantity: Kd (nM)
Return type: number; implicit unit nM.

Fill in: Kd of ATYQRTRALVR is ___
38.9

----------
- Study Target: HLA-B*08:02
- Protocol Description: IEDB peptide-MHC binding, purified MHC/direct/fluorescence; filed as Kd, often an IC50 or EC50 that approximates it; bounds were set here for any values at or beyond the usual limits of such assays
- Measurement Parameters: source organism: Vibrio vulnificus CMCP6
Quantity: Kd

Fill in: Kd of VTFFCVMTY is ___
≥ 20 µM

The values you see were collected from the Immune Epitope Database (IEDB).
